- Target or test system: BRD4 Bromodomain 1 (BRD4 BD1) (Homo sapiens, UniProt O60885)
- Construct: 44-168 and BRD4 BD2
- Protocol details: AlphaScreen binding assay, BRD4 BD1
- Setup conditions: His-tagged BRD4 BD1 50 nM, biotinylated H4 (1-21) K5/8/12/16 tetra-acetylated peptide 50 nM, compounds listed under IC50 range headings
- Experimental: The binding of Example compounds to BRD4 Bromodomain 1 and BRD4 Bromodomain 2 was assessed using 384-well AlphaScreen assay technology. His-epitope tagged BRD4 BD144-168 and BRD4 BD2333-460 were cloned, expressed, and purified to homogeneity. BRD4 BD1 and BRD4 BD2 binding and inhibition was assessed by monitoring the engagement of biotinylated Histone H4 (1-21) K5/8/12/16 tetra-acetylated peptide with the targets using the AlphaScreen technology (PerkinElmer). […]
Consider the following compounds; for each one, report its IC50.

Form field: reported IC50 of "COC(=O)N1c2ccc(-c3cnn(CCS(C)(=O)=O)c3)c(Oc3ncccc3C(N)=O)c2CC[C@@H]1C"
1000 to 10000 nM

Item: "COC(=O)N1c2ccc(-c3cnn(C4CCNCC4)c3)c(Oc3cc(F)cc(F)c3)c2CC[C@@H]1C"
100 to 1000 nM

Item: "COC(=O)N1c2ccc(-c3cnn(C4CC4)c3)c(OCC3(CO)COC3)c2CC[C@@H]1C"
1000 to 10000 nM

Item: "COC(=O)N1c2ccc(-c3cnn(C4CCNCC4)c3)c(Oc3ccc(Cl)cc3C#N)c2CC[C@@H]1C"
100 to 1000 nM

Item: "C[C@H]1CCc2c(ccc(-c3ccn(C4CCNCC4)n3)c2OC2CCC2)N1C(=O)C1CC1"
1000 to 10000 nM

Item: "C[C@H]1CCc2c(ccc(-c3cn(C)nn3)c2OC2CCC2)N1C(=O)C1CC1"
100 to 1000 nM

Item: "COC(=O)N1c2ccc(-c3cnn(C4CC4)c3)c(Oc3cnccn3)c2CC[C@@H]1C"
1000 to 10000 nM

Item: "CCNC(=O)COc1c(-c2cnn(C3CC3)c2)ccc2c1CC[C@H](C)N2C(=O)OC"
≥ 10000 nM

Item: "CC(=O)N1c2ccc(-c3cnn(C4CC4)c3)c(OCCN(C)C)c2CC[C@@H]1C"
1000 to 10000 nM

Item: "CC(=O)N1c2ccc(-c3cnn(C4CC4)c3)c(OCCF)c2CC[C@@H]1C"
1000 to 10000 nM

Item: "CC(=O)N1c2ccc(-c3cnn(C4CC4)c3)c(OCCN3CCCS3(=O)=O)c2CC[C@@H]1C"
100 to 1000 nM

Item: "CC(=O)N1c2ccc(-c3ccc(OCCN(C)C)cc3)c(OCC(=O)N(C)C)c2CC[C@@H]1C"
1000 to 10000 nM

Item: "COC(=O)N1c2ccc(-c3cnn(C4CCNCC4)c3)c(Oc3nccc(C(F)(F)F)n3)c2CC[C@@H]1C"
1000 to 10000 nM

Item: "C[C@H]1CCc2c(ccc(-c3cnn(C4CCNCC4)c3)c2Oc2ccccn2)N1C(=O)C1CC1"
1000 to 10000 nM

Item: "CC(=O)N1c2c(F)cc(-c3cnn(C4CCNCC4)c3)c(Oc3ccccc3)c2CC[C@@H]1C"
100 to 1000 nM

Item: "CC(=O)N1c2ccc(-c3cnn(C4CC4)c3)c(OCC#N)c2CC[C@@H]1C"
1000 to 10000 nM

Item: "CC(=O)N1c2ccc(-c3cnn(CCS(C)(=O)=O)c3)c(OC[C@H]3CCC(=O)N3)c2CC[C@@H]1C"
1000 to 10000 nM

====

- Target or test system: BRD4 Bromodomain 1 (BRD4 BD1) (Homo sapiens)
- Construct: 44-168 and BRD4 BD2
- Protocol details: AlphaScreen binding assay, BRD4 BD1
- Setup conditions: His-tagged BRD4 BD1 50 nM, biotinylated H4 (1-21) K5/8/12/16 tetra-acetylated peptide 50 nM, compounds listed under IC50 range headings
Consider the following compounds; for each one, report its IC50.

Form field: reported IC50 of "COC(=O)N1c2ccc(-c3cnn(C4CCNCC4)c3)c(OCC3CCCC3)c2CC[C@@H]1C"
100 to 1000 nM

Item: "COC(=O)N1c2ccc(-c3cnn(CC(C)(C)O)c3)c(Oc3ncc(C(F)(F)F)cn3)c2CC[C@@H]1C"
1000 to 10000 nM

Item: "CCCOc1c(-c2cnn(CCS(C)(=O)=O)c2)ccc2c1CC[C@H](C)N2C(C)=O"
100 to 1000 nM

Item: "CC(=O)N1c2ccc(-c3cnn(C4CCNCC4)c3)c(Oc3ncccn3)c2CC[C@@H]1C"
1000 to 10000 nM

Item: "CC(=O)N1c2ccc(-c3cnn(C4CC4)c3)c(OC3CN(C(C)C)C3)c2CC[C@@H]1C"
1000 to 10000 nM

Item: "CC(=O)N1c2ccc(-c3cnn(C4CC4)c3)c(OCC(=O)N(C)C3CC3)c2CC[C@@H]1C"
1000 to 10000 nM

Item: "COC(=O)N1c2ccc(-c3cnn(CCO)c3)c(OCC(C)C)c2CC[C@@H]1C"
1000 to 10000 nM

Item: "CC(=O)N1c2ccc(-c3cnn(C4CC4)c3)c(Oc3nc(C)cc(C)n3)c2CC[C@@H]1C"
1000 to 10000 nM

====

- Target or test system: BRD4 Bromodomain 1 (BRD4 BD1) (Homo sapiens, UniProt O60885)
- Construct: 44-168 and BRD4 BD2
- Protocol details: AlphaScreen binding assay, BRD4 BD1
- Setup conditions: His-tagged BRD4 BD1 50 nM, biotinylated H4 (1-21) K5/8/12/16 tetra-acetylated peptide 50 nM, compounds listed under IC50 range headings
Quantity name: IC50

Form field: reported IC50 of COC(=O)N1c2ccc(-c3cnn(C4CC4)c3)c(Oc3ccccc3)c2CCC1C (stereo not shown) [I-599]
1 to 10 µM

Item: COC(=O)N1c2ccc(-c3cnn(C4CC4)c3)c(Oc3ccc(C(F)(F)F)cn3)c2CC[C@@H]1C [I-557]
1 to 10 µM

Item: CCN1CC(Oc2c(-c3cnn(C4CC4)c3)ccc3c2CC[C@H](C)N3C(C)=O)C1 [I-253]
≥ 10 µM

Item: C[C@H]1CCc2c(ccc(-c3cn(C)nn3)c2Oc2ccc(F)c(F)c2)N1C(=O)C1CC1 [I-319]
1 to 10 µM

====

- Tested on: acute myelocytic leukemia (AML) cell line MV4-11
- Protocol details: Oncology cell growth assay (3-day proliferation, CellTiter-Glo)
- Assay type: cell-based
- Setup conditions: Homo sapiens, MV4-11 cells, 3000 cells/well, 72 hours, compounds listed under IC50 range headings, read-out: MV411 IC50 (gIC50, inhibition of proliferation)
Consider the following compounds; for each one, report its IC50.

Form field: reported IC50 of CC(=O)N1c2ccc(-c3cnn(C4CC4)c3)c(OC(F)C(N)=O)c2CC[C@@H]1C (single isomer, unassigned) [I-64]
> 1000 nM

Item: CCCOc1c(C2CCN(C(=O)OC)CC2)ccc2c1CC[C@H](C)N2C(C)=O [I-357]
> 1000 nM

Item: CCCOc1c(-c2cnn(C3CCNCC3)c2)ccc2c1CC[C@H](C)N2C(=O)OC [I-107]
< 500 nM

Item: CC(=O)N1c2ccc(-c3cnn(C4CC4)c3)c(O[C@H](F)C(N)=O)c2CC[C@@H]1C (single isomer, unassigned) [I-63]
> 1000 nM

Item: COC(=O)N1c2ccc(-c3cnn(C4CCNCC4)c3F)c(OC3CCC3)c2CC[C@@H]1C [I-360]
< 500 nM

Item: CCCOc1c(-c2cnn(CCO)c2)ccc2c1CC[C@H](C)N2C(C)=O [I-1]
< 500 nM

Item: CC(=O)N1c2ccc(-c3cnn(C4CCNCC4)c3)c(Nc3ccccc3)c2CC[C@@H]1C [I-359]
< 500 nM

====

- Target or test system: BRD4 Bromodomain 2 (BRD4 BD2) (Homo sapiens, UniProt O60885)
- Construct: 333-460 were cloned, expressed, and purified to homogeneity
- Protocol details: AlphaScreen binding assay, BRD4 BD2
- Setup conditions: His-tagged BRD4 BD2 100 nM, biotinylated H4 (1-21) K5/8/12/16 tetra-acetylated peptide 100 nM, compounds listed under IC50 range headings
pIC50: −log10 of the molar value.
Consider the following compounds; for each one, report its pIC50.

Form field: reported pIC50 of "COC(=O)N1c2ccc(-c3cnn(C4CC4)c3)c(Oc3ncc(C)cn3)c2CC[C@@H]1C"
6.30 to 7.30

Item: "CC(=O)N1c2ccc(-c3cnn(CCS(C)(=O)=O)c3)c(OCC3CCOCC3)c2CC[C@@H]1C"
6.30 to 7.30

Item: "CC(=O)N1c2ccc(-c3cnn(C4CCNCC4)c3)c(Oc3ncccc3C#N)c2CC[C@@H]1C"
6.30 to 7.30

Item: "CCCOc1c(-c2cnn(C3CCNCC3)c2)ccc2c1CC[C@H](C)N2C(=O)C1CC1"
> 7.30

Item: "COC(=O)N1c2ccc(-c3cnn(CC(C)(C)O)c3)c(OC3CCC3)c2CC[C@@H]1C"
> 7.30

Item: "COC(=O)N1c2ccc(-c3cnn(CC(C)(C)O)c3)c(Oc3ncc(C)cn3)c2CC[C@@H]1C"
6.30 to 7.30

Item: "COC(=O)N1c2ccc(-c3cnn(C4CC4)c3)c(OC(F)(F)C(N)=O)c2CC[C@@H]1C"
6.30 to 7.30

Item: "CNC(=O)COc1c(-c2cnn(C3CC3)c2)ccc2c1CC[C@H](C)N2C(C)=O"
6.30 to 7.30

Item: "CC(=O)N1c2ccc(-c3cnn(C4CC4)c3)c(Oc3ccnc(C(F)(F)F)n3)c2CC[C@@H]1C"
6.30 to 7.30

Item: "CC(=O)N1c2ccc(-c3cnn(C4CCNCC4)c3)c(Oc3ncccn3)c2CC[C@@H]1C"
6.30 to 7.30

Item: "CC(=O)N1c2ccc(-c3cnn(C4CC4)c3)c(Oc3ncc(C)cn3)c2CC[C@@H]1C"
> 7.30

Item: "CC(=O)N1c2ccc(-c3cnn(C4CCNCC4)c3)c(Oc3ccc(C(N)=O)cc3)c2CC[C@@H]1C"
6.30 to 7.30

Item: "COC(=O)N1c2ccc(-c3cnn(CCO)c3)c(Oc3ncc(C)cn3)c2CC[C@@H]1C"
6.30 to 7.30

Item: "COC(=O)N1c2ccc(-c3cnn(C4CCN(C)CC4)c3)c(Oc3ccc(F)cc3)c2CC[C@@H]1C"
> 7.30

Item: "COC(=O)N1c2ccc(-c3cnn(CCS(C)(=O)=O)c3)c(OCC(=O)N(C)C)c2CC[C@@H]1C"
6.30 to 7.30

Item: "COC(=O)N1c2ccc(-c3cnn(C4CCNCC4)c3)c(Oc3ccc(F)c(Cl)c3)c2CC[C@@H]1C"
> 7.30

Item: "COC(=O)N1c2ccc(-c3cnn(C4CCNCC4)c3)c(OC[C@H]3CCC(=O)N3)c2CC[C@@H]1C"
6.30 to 7.30
